# MEASURED_TARGET: Oxytocin receptor (Homo sapiens)
# Sequence (P30559 whole entry): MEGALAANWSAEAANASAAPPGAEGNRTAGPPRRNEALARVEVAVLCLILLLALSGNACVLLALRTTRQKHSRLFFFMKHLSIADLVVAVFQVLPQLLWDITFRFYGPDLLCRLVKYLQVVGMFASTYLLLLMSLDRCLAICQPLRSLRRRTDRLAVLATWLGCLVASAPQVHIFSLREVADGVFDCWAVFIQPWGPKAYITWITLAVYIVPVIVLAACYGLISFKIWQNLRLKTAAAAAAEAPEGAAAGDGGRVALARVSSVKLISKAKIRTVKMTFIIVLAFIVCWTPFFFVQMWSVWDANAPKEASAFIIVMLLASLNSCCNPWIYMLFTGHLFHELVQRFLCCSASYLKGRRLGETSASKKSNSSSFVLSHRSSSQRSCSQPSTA
# PROTOCOL_DETAILS: Binding affinity to human oxytocin receptor
# PARTICULARS: read-out: Log Ki (converted)
Please respond with 1 when measured Ki is strictly beneath 2 nM, and with -1 in all other cases.

Problem: Find out if reported Ki for Cc1nc([C@H](C(=O)N(C)C)N2C(=O)[C@@H](C3Cc4ccccc4C3)NC(=O)[C@H]2CC(C)C)cs1 is less than 2 nM
Result: 1

Problem: Find out if reported Ki for CNC(=O)c1ccc([C@H](C(=O)NC(C)C)N2C(=O)[C@@H](C3Cc4ccccc4C3)NC(=O)[C@H]2CC(C)C)o1 is less than 2 nM
Result: -1

Problem: Find out if reported Ki for Cc1nc([C@H](C(=O)N(C)C)N2C(=O)[C@@H](C3Cc4ccccc4C3)NC(=O)[C@H]2CC(C)C)c(C)o1 is less than 2 nM
Result: -1

Problem: Find out if reported Ki for CC(C)C[C@@H]1C(=O)N[C@H](C2Cc3ccccc3C2)C(=O)N1[C@@H](C(=O)NC(C)C)c1ccc(-c2ccccn2)s1 is less than 2 nM
Result: -1

Problem: Find out if reported Ki for Cc1nc([C@H](C(=O)N2CCC2)N2C(=O)[C@@H](C3Cc4ccccc4C3)NC(=O)[C@H]2CC(C)C)co1 is less than 2 nM
Result: 1
